Reference for the values: patent US20040037843A1

A collection of binders and their measured pIC50
- TARGET_OR_SYSTEM: HLA-A*0203 (human)
- METHOD_NOTES: inhibition of 125I probe peptide binding to purified HLA, gel filtration
- CONDITION_DESCRIPTION: remark: other sources report otherwise
// returns pIC50 (minus log10 of molar concentration), number only

>  <BINDER>
MLLRLSEPAEV [Peptide 1389.12 (PSA.118.V11)]

>  <EXPERIMENTAL_VALUE>
6.94

$$$$

Query: What measured pIC50 goes with TLSVTWIGV [Peptide 60.0217 (PSA.5.V9)] ?
Result: 7.40
